measurement.target: SIRT1 (Homo sapiens)
Sequence (Q96EB6 1-747): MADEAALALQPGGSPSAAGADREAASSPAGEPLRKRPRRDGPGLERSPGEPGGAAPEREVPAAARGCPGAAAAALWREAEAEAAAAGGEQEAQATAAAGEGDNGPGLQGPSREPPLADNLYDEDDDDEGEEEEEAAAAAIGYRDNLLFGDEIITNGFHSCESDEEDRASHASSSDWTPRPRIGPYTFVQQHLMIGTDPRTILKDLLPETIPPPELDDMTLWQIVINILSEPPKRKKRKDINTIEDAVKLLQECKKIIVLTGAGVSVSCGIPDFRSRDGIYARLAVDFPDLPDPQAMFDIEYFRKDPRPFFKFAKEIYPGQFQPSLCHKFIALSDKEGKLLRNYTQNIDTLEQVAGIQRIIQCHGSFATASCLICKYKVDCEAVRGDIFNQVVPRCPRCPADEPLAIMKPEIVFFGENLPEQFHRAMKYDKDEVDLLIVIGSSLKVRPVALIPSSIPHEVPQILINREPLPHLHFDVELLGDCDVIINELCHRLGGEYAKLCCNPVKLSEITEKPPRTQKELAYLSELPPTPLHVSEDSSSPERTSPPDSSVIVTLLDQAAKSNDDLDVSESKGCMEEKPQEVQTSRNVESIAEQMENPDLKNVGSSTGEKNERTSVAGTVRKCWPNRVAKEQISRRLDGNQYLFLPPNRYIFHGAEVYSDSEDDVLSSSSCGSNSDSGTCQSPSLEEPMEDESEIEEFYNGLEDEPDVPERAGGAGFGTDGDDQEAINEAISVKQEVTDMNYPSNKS
procedure.summary: Trp mass spectrometry assay of SIRT1 activity (EC1.5, percent maximum activation)
Type: biochemical
test.settings: Trp mass spectrometry assay; EC1.5 = concentration giving 150% activation of SIRT1
recorded.endpoint: TRP Activity (EC1.5)

Some entries whose results are on file:
Cc1ncc(-c2ccc3c(n2)N(C(=O)Nc2cnccn2)[C@H]2CCN3C2)o1 [Example 162] :: B (EC1.5 1-25 μM)
Cc1ccc(-c2nc3c(cc2C(F)(F)F)N2CC[C@@H](C2)N3C(=O)Nc2cccnc2)cn1 [Example 1] :: C (EC1.5>25 μM)
Cc1cc(-c2ccc3c(n2)N(C(=O)Nc2c[nH]nn2)[C@H]2CCN3C2)ccn1 [Example 167] :: B (EC1.5 1-25 μM)
N#Cc1cc2c(nc1-c1cccc(C(F)(F)F)c1)N(C(=O)Nc1ccnc(OC[C@@H](O)CO)c1)[C@H]1CCN2C1 [Example 104] :: A (EC1.5<1 μM)
O=C(Nc1ccnc(OC[C@H](O)CO)n1)N1c2nc(-c3cccc(C(F)(F)F)c3)ccc2N2CC[C@H]1C2 [Example 127] :: A (EC1.5<1 μM)
Cc1cc(-c2nc3c(cc2Cl)N2CC[C@@H](C2)N3C(=O)Nc2cncc(OC[C@@H](O)CO)c2)ccn1 [Example 110] :: B (EC1.5 1-25 μM)
O=C(Nc1ccnc(OCCO)n1)N1c2nc(-c3cccc(C(F)(F)F)c3)c(Cl)cc2N2CC[C@H]1C2 [Example 70] :: A (EC1.5<1 μM)
O=C(Nc1ccnc(OCC(O)CO)c1)N1c2nc(-c3cccc(C(F)(F)F)c3)ccc2N2CC[C@H]1C2 (stereo in doubt) [Example 170] :: A (EC1.5<1 μM)
O=C(Nc1ccnc(OC[C@@H](O)CO)c1)N1c2nc(-c3cnn(C4CC4)c3)c(Cl)cc2N2CC[C@H]1C2 [Example 102] :: B (EC1.5 1-25 μM)
Cl.O=C(Nc1cc(OC[C@@H](O)CO)ccn1)N1c2nc(-c3cccc(C(F)(F)F)c3)c(Cl)cc2N2CC[C@H]1C2 [Example 64] :: B (EC1.5 1-25 μM)

// TRP Activity (EC1.5) value for O=C(Nc1ccnc(OCCCO)n1)N1c2nc(-c3cccc(C(F)(F)F)c3)c(Cl)cc2N2CC[C@H]1C2 [Example 42] : A (EC1.5<1 μM)

// TRP Activity (EC1.5) value for Cl.O=C(NC1CC1)N1c2nc(-c3cccc(C(F)(F)F)c3)c(Cl)cc2N2CC[C@H]1C2 [Example 53] : A (EC1.5<1 μM)

// TRP Activity (EC1.5) value for Cc1cc(-c2nc3c(cc2Cl)N2CC[C@@H](C2)N3C(=O)Nc2ccnc(OC3CCOCC3)n2)ccn1 [Example 21] : C (EC1.5>25 μM)

----------
measurement.target: SIRT1 (Homo sapiens, UniProt Q96EB6)
procedure.summary: Trp mass spectrometry assay of SIRT1 activity (EC1.5, percent maximum activation)
Format: biochemical
test.settings: Trp mass spectrometry assay; EC1.5 = concentration giving 150% activation of SIRT1
recorded.endpoint: TRP Activity (EC1.5)

Some entries whose results are on file:
Cc1ccc(NC(=O)N2c3nc(-c4ccnc(C)c4)ccc3N3CC[C@H]2C3)cn1 :: B (EC1.5 1-25 μM)
Cc1cc(-c2nc3c(cc2Cl)N2CC[C@@H](C2)N3C(=O)Nc2ccnc(OC[C@@H](O)CO)c2)ccn1 :: B (EC1.5 1-25 μM)
O=C(Nc1ncc(OC[C@H](O)CO)cn1)N1c2nc(-c3cccc(C(F)(F)F)c3)c(Cl)cc2N2CC[C@H]1C2 :: B (EC1.5 1-25 μM)
Cc1cc(-c2ccc3c(n2)N(C(=O)Nc2ccc4[nH]cnc4n2)[C@H]2CCN3C2)ccn1 :: B (EC1.5 1-25 μM)
COc1cc(-c2ccc3c(n2)N(C(=O)Nc2cnccn2)[C@H]2CCN3C2)cc(C)n1 :: B (EC1.5 1-25 μM)
O=C(Nc1ccc(OC[C@@H](O)CO)nc1)N1c2nc(-c3cccc(C(F)(F)F)c3)c(Cl)cc2N2CC[C@H]1C2 :: A (EC1.5<1 μM)

// TRP Activity (EC1.5) value for `O=C(Nc1cnc(OC[C@@H](O)CO)cn1)N1c2nc(-c3cccc(C(F)(F)F)c3)c(Cl)cc2N2CC[C@H]1C2` : B (EC1.5 1-25 μM)

// TRP Activity (EC1.5) value for `Cc1cc(-c2ccc3c(n2)N(C(=O)Nc2nccc4[nH]cnc24)[C@H]2CCN3C2)ccn1` : B (EC1.5 1-25 μM)

// TRP Activity (EC1.5) value for `Cc1ccc(-c2nc3c(cc2C)N2CC[C@@H](C2)N3C(=O)Nc2ccccn2)cn1` : B (EC1.5 1-25 μM)

// TRP Activity (EC1.5) value for `O=C(Nc1ccnc(OC[C@@H](O)CO)c1)N1c2nc(-c3cccc(C(F)(F)F)c3)c(Cl)cc2N2CC[C@H]1C2` : A (EC1.5<1 μM)

// TRP Activity (EC1.5) value for `O=C(Nc1cnc(OC[C@H](O)CO)nc1)N1c2nc(-c3cccc(C(F)(F)F)c3)c(Cl)cc2N2CC[C@H]1C2` : B (EC1.5 1-25 μM)

// TRP Activity (EC1.5) value for `O=C(Nc1cnccn1)N1c2nc(N3CCOCC3)ccc2N2CC[C@H]1C2` : B (EC1.5 1-25 μM)

// TRP Activity (EC1.5) value for `O=C(Nc1cnccn1)N1c2nc(-c3ccc(C4CC4)nc3)ccc2N2CC[C@H]1C2` : B (EC1.5 1-25 μM)

// TRP Activity (EC1.5) value for `O=C(Nc1nccc(OC[C@@H](O)CO)n1)N1c2nc(-c3cccc(C(F)(F)F)c3)c(Cl)cc2N2CC[C@H]1C2` : A (EC1.5<1 μM)

// TRP Activity (EC1.5) value for `Cn1cc(-c2ccc3c(n2)N(C(=O)Nc2cnccn2)[C@H]2CCN3C2)cn1` : B (EC1.5 1-25 μM)

----------
measurement.target: UniProt:Q96EB6
procedure.summary: Trp mass spectrometry assay of SIRT1 activity (EC1.5, percent maximum activation)
Format: biochemical
test.settings: Trp mass spectrometry assay; EC1.5 = concentration giving 150% activation of SIRT1
recorded.endpoint: TRP Activity (EC1.5)

O=C(Nc1cccc(OC[C@@H](O)CO)n1)N1c2nc(-c3cccc(C(F)(F)F)c3)c(Cl)cc2N2CC[C@H]1C2 [Example 71] :: A (EC1.5<1 μM)
O=C(Nc1cncc(OC[C@@H](O)CO)n1)N1c2nc(-c3cccc(C(F)(F)F)c3)ccc2N2CC[C@H]1C2 [Example 123] :: A (EC1.5<1 μM)
CCn1cc(-c2nc3c(cc2Cl)N2CC[C@@H](C2)N3C(=O)Nc2ccnc(OC[C@@H](O)CO)c2)cn1 [Example 199] :: B (EC1.5 1-25 μM)
Cc1cc(-c2nc3c(cc2Cl)N2CC[C@@H](C2)N3C(=O)Nc2cncc(OC[C@H](O)CO)n2)ccn1 [Example 97] :: C (EC1.5>25 μM)
Cc1cc(-c2nc3c(cc2Cl)N2CC[C@@H](C2)N3C(=O)Nc2cnc(OC[C@@H](O)CO)cn2)ccn1 [Example 40] :: B (EC1.5 1-25 μM)
Cc1cc(-c2nc3c(cc2Cl)N2CC[C@@H](C2)N3C(=O)Nc2ccnc(OC[C@H](O)CO)n2)ccn1 [Example 96] :: C (EC1.5>25 μM)
Cc1cncc(NC(=O)N2c3nc(-c4ccnc(C)c4)ccc3N3CC[C@H]2C3)c1 [Example 194] :: B (EC1.5 1-25 μM)
O=C(Nc1cccc(OCCO)n1)N1c2nc(-c3cccc(C(F)(F)F)c3)c(Cl)cc2N2CC[C@H]1C2 [Example 79] :: A (EC1.5<1 μM)

// TRP Activity (EC1.5) value for O=C(Nc1cccc(OC[C@H](O)CO)n1)N1c2nc(-c3cccc(C(F)(F)F)c3)c(Cl)cc2N2CC[C@H]1C2 [Example 56] : A (EC1.5<1 μM)

// TRP Activity (EC1.5) value for O=C(Nc1cnccn1)N1c2nc(N3CCCCC3)ccc2N2CC[C@H]1C2 [Example 181] : B (EC1.5 1-25 μM)

// TRP Activity (EC1.5) value for Cc1cc(-c2nc3c(cc2Br)N2CC[C@@H](C2)N3C(=O)Nc2cccnc2)ccn1 [Example 12] : B (EC1.5 1-25 μM)

// TRP Activity (EC1.5) value for O=C(Nc1ccnc(OC[C@H](O)CO)n1)N1c2nc(-c3cccc(C(F)(F)F)c3)c(Cl)cc2N2CC[C@H]1C2 [Example 50] : A (EC1.5<1 μM)

// TRP Activity (EC1.5) value for O=C(Nc1ccccn1)N1c2nc(-c3cccc(C(F)(F)F)c3)c(Cl)cc2N2CC[C@H]1C2 [Example 35] : A (EC1.5<1 μM)

// TRP Activity (EC1.5) value for O=C(Nc1cnccn1)N1c2nc(-c3ccc(CO)nc3)ccc2N2CC[C@H]1C2 [Example 147] : B (EC1.5 1-25 μM)

// TRP Activity (EC1.5) value for O=C(NC1CC1)N1c2nc(-c3cccc(C(F)(F)F)c3)c(Cl)cc2N2CC[C@H]1C2 [Example 52] : A (EC1.5<1 μM)

// TRP Activity (EC1.5) value for Cc1cc(-c2ccc3c(n2)N(C(=O)Nc2cnccn2)[C@H]2CCN3C2)cnc1C [Example 171] : A (EC1.5<1 μM)

// TRP Activity (EC1.5) value for O=C(Nc1ccnc(OC[C@@H](O)CO)c1)N1c2nc(-c3cccc(C(F)F)c3)c(Cl)cc2N2CC[C@H]1C2 [Example 107] : A (EC1.5<1 μM)

// TRP Activity (EC1.5) value for O=C(Nc1cnc(OC[C@@H](O)CO)nc1)N1c2nc(-c3cccc(C(F)(F)F)c3)c(Cl)cc2N2CC[C@H]1C2 [Example 80] : A (EC1.5<1 μM)

// TRP Activity (EC1.5) value for Cc1ccc(-c2nc3c(cc2Br)N2CC[C@@H](C2)N3C(=O)Nc2ccccn2)cn1 [Example 2] : B (EC1.5 1-25 μM)
